Reported Inhibition by item:
system: Klebsiella pneumoniae; details: Concentration 32 ug.mL-1;; ASSAY_TEST Inhibition of Bacterial Growth; detection method Absorption (OD600); MEDIA CAMHB; plate type 384well; NBS; CORNING #3640; time 18 hr
Description: Antibacterial activity against Klebsiella pneumoniae MDR ATCC 70063 (CO-ADD:GN_003); MIC in CAMBH media using NBS plates, by OD(600)
Measured potencies and affinities stand elsewhere.
Respond with the bare value in %.

# count of solved cases: 2
Cc1nnc2c(S(=O)(=O)N(Cc3ccc(F)cc3)c3ccc(C(C)C)cc3)cccn12 :: 1.5
COc1ccc(-c2cc3c4nn(CC(=O)NCc5ccccc5Cl)c(=O)n4ccn3n2)cc1 :: 14.7

Query block: Please report the recorded Inhibition for COc1ccc(NC(=O)Cn2nc3ccc(-c4ccccc4)nn3c2=O)cc1Cl .
Result block: -6.25

Query block: Please report the recorded Inhibition for COc1cccc(NC(=O)Cn2nc3ccc(-c4ccc(Cl)cc4)nn3c2=O)c1 .
Result block: 5.27

Query block: Please report the recorded Inhibition for COc1cccc(Oc2nccn3c(=O)n(CC(=O)Nc4cccc(Br)c4)nc23)c1 .
Result block: 6.87

Query block: Please report the recorded Inhibition for COc1cccc(Cn2nc3n(CCC(=O)NC4CCCCC4)c(=O)c4ccccc4n3c2=O)c1 .
Result block: 9.79

Query block: Please report the recorded Inhibition for Cc1ccc(F)cc1NC(=O)CSc1nc2ccccc2n2c(C)nnc12 .
Result block: 10

Query block: Please report the recorded Inhibition for O=C(CSc1nnc2c(=O)n(-c3ccccc3)ccn12)Nc1cccc(F)c1 .
Result block: 2

Query block: Please report the recorded Inhibition for Cc1ccccc1Oc1nc2ccccc2n2c(=O)n(CC(=O)Nc3ccccc3C(F)(F)F)nc12 .
Result block: 7.22

Query block: Please report the recorded Inhibition for Cc1nnc2c(S(=O)(=O)N(Cc3cccc(Cl)c3)c3ccc(F)c(F)c3)cccn12 .
Result block: 3.16

Query block: Please report the recorded Inhibition for CCCCOc1ccc(-c2cc3c4nnc(SCC(=O)Nc5ccc(Cl)cc5)n4ccn3n2)cc1 .
Result block: 11.84
